src = ChEMBL document CHEMBL1143099

Experiment: Agonist activity at human MC1bR expressed in CHO cells assessed as cAMP release at 10 uM relative to alpha-MSH
Format: functional
Labelling field: enter criterion met if recorded Activity is less than 10%. Enter criterion not met if it equals or exceeds that cut-off.

Challenge: Quick check: Activity of "CC[C@H](NC(C)=O)c1cc(Cl)ccc1C1CCN(C(=O)[C@H]2CN(C(C)(C)C)C[C@@H]2c2ccc(Cl)cc2Cl)CC1" under 10%?
Response given: criterion met

Challenge: Criterion: Activity strictly below 10%. Is it met by "CC[C@H](NC(C)=O)c1cc(Cl)ccc1C1CCN(C(=O)[C@H]2CN(C(C)(C)C)C[C@@H]2c2ccc(C(F)(F)F)cc2)CC1" ?
Response given: criterion met

Challenge: Is Activity strictly under 10% for the entry "CC[C@H](NC(C)=O)c1cc(Cl)ccc1C1CCN(C(=O)[C@H]2CN(C(C)(C)C)C[C@@H]2c2ccc(Br)cc2F)CC1" ?
Response given: criterion not met

Challenge: Does "CC[C@H](NC(C)=O)c1cc(Cl)ccc1C1CCN(C(=O)[C@@H]2CN(C(C)(C)C)C[C@H]2c2ccc(Cl)cc2F)CC1" have Activity strictly under 10%?
Response given: criterion not met

Challenge: Please determine if "CC[C@H](NC(C)=O)c1cc(Cl)ccc1C1CCN(C(=O)[C@@H]2CN(C(C)(C)C)C[C@H]2c2ccc(Br)cc2F)CC1" is below 10% in terms of Activity.
Response given: criterion not met
